settings: 323.15 K; 101.33 kPa; Liquid; Alternating current cell with electrodes
In this section, each of the compounds is paired with its reported electrical conductivity.
Use S/m as the unit, but write only the number.

Look over these answered cases.
Identify the reported electrical conductivity for the following entry. CCn1cc[n+](C)c1.O=S(=O)([N-]S(=O)(=O)C(F)(F)F)C(F)(F)F
1.79

Identify the reported electrical conductivity for the following entry. CCCCn1cc[n+](C)c1.F[P-](F)(F)(F)(F)F [1-butyl-3-methylimidazolium hexafluorophosphate]
0.477

Identify the reported electrical conductivity for the following entry. CCCCCC[n+]1ccn(C)c1.O=S(=O)([N-]S(=O)(=O)C(F)(F)F)C(F)(F)F
0.546

Further cases:
Identify the reported electrical conductivity for the following entry. CCCC[n+]1ccn(C)c1.O=S(=O)([N-]S(=O)(=O)C(F)(F)F)C(F)(F)F
0.924

###

details: 288.15 K; 101.33 kPa; Liquid; Alternating current cell with electrodes
quantity measured: electrical conductivity (S/m)
Use S/m as the unit, but write only the number.

Look over these answered cases.
Identify the reported electrical conductivity for the following entry. CCCCCC[n+]1ccn(C)c1.O=S(=O)([N-]S(=O)(=O)C(F)(F)F)C(F)(F)F
0.135

Identify the reported electrical conductivity for the following entry. CCCCn1cc[n+](C)c1.F[P-](F)(F)(F)(F)F [1-butyl-3-methylimidazolium hexafluorophosphate]
0.079

Identify the reported electrical conductivity for the following entry. CCCC[n+]1ccn(C)c1.O=S(=O)([N-]S(=O)(=O)C(F)(F)F)C(F)(F)F
0.265

Further cases:
Identify the reported electrical conductivity for the following entry. CCn1cc[n+](C)c1.O=S(=O)([N-]S(=O)(=O)C(F)(F)F)C(F)(F)F
0.644

###

In this section, each of the compounds is paired with its reported electrical conductivity.
details: 293.15 K; 101.33 kPa; Liquid; Alternating current cell with electrodes
Use S/m as the unit, but write only the number.

Identify the reported electrical conductivity for the following entry. CCCCn1cc[n+](C)c1.F[P-](F)(F)(F)(F)F [1-butyl-3-methylimidazolium hexafluorophosphate]
0.109

Further cases:
Identify the reported electrical conductivity for the following entry. CCCCCC[n+]1ccn(C)c1.O=S(=O)([N-]S(=O)(=O)C(F)(F)F)C(F)(F)F
0.173

Identify the reported electrical conductivity for the following entry. CCCC[n+]1ccn(C)c1.O=S(=O)([N-]S(=O)(=O)C(F)(F)F)C(F)(F)F
0.331

Identify the reported electrical conductivity for the following entry. CCn1cc[n+](C)c1.O=S(=O)([N-]S(=O)(=O)C(F)(F)F)C(F)(F)F
0.773

###

In this section, each of the molecules is paired with its reported electrical conductivity.
details: 298.15 K; 101.33 kPa; Liquid; Alternating current cell with electrodes

Look over these answered cases.
Identify the reported electrical conductivity for the following entry. CCn1cc[n+](C)c1.O=S(=O)([N-]S(=O)(=O)C(F)(F)F)C(F)(F)F
0.912 S/m

Identify the reported electrical conductivity for the following entry. CCCCCC[n+]1ccn(C)c1.O=S(=O)([N-]S(=O)(=O)C(F)(F)F)C(F)(F)F
0.218 S/m

Identify the reported electrical conductivity for the following entry. CCCCn1cc[n+](C)c1.F[P-](F)(F)(F)(F)F [1-butyl-3-methylimidazolium hexafluorophosphate]
0.146 S/m

Now for the molecule whose electrical conductivity we want.
Identify the reported electrical conductivity for the following entry. CCCC[n+]1ccn(C)c1.O=S(=O)([N-]S(=O)(=O)C(F)(F)F)C(F)(F)F
0.406 S/m
